test system: BON human pancreatic carcinoid cell lines; assay: Inhibition of growth of BON pancreatic carcinoid cells, MUH fluorescence; type: cell-based; conditions: 192 h, read-out: ED50 (inhibition of cell growth)
Measure name: EC50
# number then unit; no other words

What value of EC50 has been recorded for this entry: COc1ccc(CCN(C)CCCC(C#N)(c2ccc(OC)c(OC)c2)C(C)C)cc1OC (stereo not shown) [verapamil]
43.6 µM

This collection of values is drawn from patent US6500826B1.
